Values were extracted from ChEMBL document CHEMBL3046828.

Protocol summary: Half life in Solanum lycopersicum (tomato) plant fruits at 300 g/L treated under green house condition
Type: ADME, Fruit
Measurement label: half-life (h)

{"Smiles str": "Cc1cc(C)nc(Nc2ccccc2)n1", "Measurement label": "half-life", "Measure unit": "h", "Val": 137}
